# Tested on: Rattus norvegicus
# TEST NAME: In vivo activity by inhibition of PAF-induced cutaneous vascular permeability in rats after peroral administration
# Type: functional
# EXPERIMENTAL CONDITIONS: po
This listing pairs compounds with measured ED50.
The reply should contain only the number, in mg/kg.

Please review the entries below; each comes with its answer.
1) O=C(c1ccn2c1CSC2c1cccnc1)c1cn(CCO)c2cc(-c3ccc(F)cc3)ccc12 (centres undefined)    0.76
2) O=C(O)CCn1cc(C(=O)c2ccn3c2CSC3c2cccnc2)c2ccc(-c3ccc(F)cc3)cc21 (centres undefined)    5.1
3) O=C(c1ccn2c1CSC2c1cccnc1)c1c[nH]c2cc(-c3ccc(F)cc3)ccc12 (centres undefined)    6.4

Continue with the compound presented below.
[ask] Param readout= ED50; system= Rattus norvegicus; entry= CN(C)C(=O)n1cc(C(=O)c2ccn3c2CSC3c2cccnc2)c2ccc(-c3ccccc3)cc21 (centres undefined) ; returns value.
[reply] 0.06

###

# Test system: Rattus norvegicus
# TEST NAME: In vivo activity by inhibition of PAF-induced cutaneous vascular permeability in rats after peroral administration
# Assay type: functional
# EXPERIMENTAL CONDITIONS: po
List of ED50 values.
Your answer is read as mg/kg, so omit the unit and give the number.

1) CN(C)C(=O)n1cc(C(=O)c2ccn3c2CSC3c2cccnc2)c2ccc(-c3ccc(F)cc3)cc21 (centres undefined)    0.06
2) CNC(=O)n1cc(C(=O)c2ccn3c2CSC3c2cccnc2)c2ccc(-c3ccc(F)cc3)cc21 (centres undefined)    0.12
3) CN(C)C(=O)n1cc(C(=O)c2ccn3c2CSC3c2cccnc2)c2ccc(Cl)cc21 (centres undefined)    1.4
4) CN(C)C(=O)n1cc(C(=O)c2ccn3c2CSC3c2cccnc2)c2ccc(Br)cc21 (centres undefined)    1.5
5) NNC(=O)n1cc(C(=O)c2ccn3c2CSC3c2cccnc2)c2ccc(-c3ccc(F)cc3)cc21 (centres undefined)    0.57
6) NCCn1cc(C(=O)c2ccn3c2CSC3c2cccnc2)c2ccc(-c3ccc(F)cc3)cc21 (centres undefined)    1.3

[ask] Return reported ED50; argument: CN(C)C(=O)n1cc(C(=O)c2ccn3c2CSC3c2cccnc2)c2ccc(OCc3ccccc3)cc21 (centres undefined)
[reply] 3.3

[ask] Consider the molecule CN(C)C(=O)Cn1cc(C(=O)c2ccn3c2CSC3c2cccnc2)c2ccc(-c3ccc(F)cc3)cc21 (centres undefined) and give its measured ED50.
[reply] 0.12

[ask] Query: ED50; subject: NC(=O)n1cc(C(=O)c2ccn3c2CSC3c2cccnc2)c2ccc(-c3ccc(F)cc3)cc21 (centres undefined)
[reply] 0.06
